molecular target: human neurokinin-1-receptor (NK1R) (Homo sapiens); construct: expressed in transfected cells; experiment: Substance P antagonism assay: 125I-substance P binding to human NK1R expressed in COS or CHO cells; conditions: 125I-SP displacement, read-out: IC50 @ NK1R
Sequence (P25103 whole entry): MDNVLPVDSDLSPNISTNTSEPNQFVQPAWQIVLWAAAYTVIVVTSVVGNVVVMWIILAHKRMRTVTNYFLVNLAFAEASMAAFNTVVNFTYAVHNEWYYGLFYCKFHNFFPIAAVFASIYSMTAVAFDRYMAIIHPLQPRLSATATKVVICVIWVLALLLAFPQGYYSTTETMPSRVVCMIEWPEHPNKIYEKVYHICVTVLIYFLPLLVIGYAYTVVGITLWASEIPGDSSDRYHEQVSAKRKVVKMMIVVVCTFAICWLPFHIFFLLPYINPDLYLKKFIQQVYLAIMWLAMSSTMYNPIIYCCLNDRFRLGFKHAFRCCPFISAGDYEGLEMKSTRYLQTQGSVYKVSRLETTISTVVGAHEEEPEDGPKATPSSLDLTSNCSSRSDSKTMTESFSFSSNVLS
Counter-ions that a name gives are not always drawn.
Quantity: IC50 (nM)
Give the value, in units of nM, as a plain number.

A selection of reference data follows.
Compound | IC50, nM
OC(C=C1C2CCN(CC2)C1C(c1ccccc1)c1ccccc1)c1cc(C(F)(F)F)cc(C(F)(F)F)c1 (single isomer, unassigned) [9 (ISOMER A)] | 0.9
O=C(C=C1C2CCN(CC2)C1C(c1ccccc1)c1ccccc1)c1ccccc1 (stereo not drawn) [Example 8] | 190
Cc1cc(C)cc(C(=O)C=C2C3CCN(CC3)C2C(c2ccccc2)c2ccccc2)c1 (stereo not drawn) [Example 12] | 140

Input FC(C=C1C2CCN(CC2)C1C(c1ccccc1)c1ccccc1)c1cc(C(F)(F)F)cc(C(F)(F)F)c1 (single isomer, unassigned; isomer a) [Example 10, oxalate salt] . Output IC50: 5

Input OC(C=C1C2CCN(CC2)C1Cc1ccccc1)c1cc(C(F)(F)F)cc(C(F)(F)F)c1 (single isomer, unassigned) [15 (DIASTEREOMER A)] . Output IC50: 63

* * *

Below, each of the compounds is paired with its reported IC50 value.
biological target: human neurokinin-1-receptor (NK1R) (Homo sapiens); construct: expressed in transfected cells; assay: Substance P antagonism assay: 125I-substance P binding to human NK1R expressed in COS or CHO cells; conditions: IC50 @ NK1R, 125I-SP displacement
Give the value, in units of nM, as a plain number.

Compound | Endpoint Unit | IC50
C(Cc1ccccc1)=C1C2CCN(CC2)C1C(c1ccccc1)c1ccccc1 (stereo not shown) | nM | 170
COc1ccccc1C(O)C=C1C2CCN(CC2)C1C(c1ccccc1)c1ccccc1 (single isomer, unassigned) [1 (ISOMER A)] | nM | 50
OC(C=C1C2CCN(CC2)C1C(c1ccccc1)c1ccccc1)c1cccc(C(F)(F)F)c1 (single isomer, unassigned) [3 (ISOMER A)] | nM | 30
COc1ccccc1C(O)C=C1C2CCN(CC2)C1C(c1ccccc1)c1ccccc1 (single isomer, unassigned) [1 (ISOMER B)] | nM | 130

Input OC(C=C1C2CCN(CC2)C1C(c1ccccc1)c1ccccc1)c1cccc(C(F)(F)F)c1 (single isomer, unassigned) [3 (ISOMER B)] . Output IC50: 110

Input Cc1cc(C)cc(C(O)C=C2C3CCN(CC3)C2C(c2ccccc2)c2ccccc2)c1 (stereo not shown) . Output IC50: 13

Input OC(C=C1C2CCN(CC2)C1C(c1ccccc1)c1ccccc1)c1ccc(F)cc1 (single isomer, unassigned) [2 (ISOMER B)] . Output IC50: 197
